All values here come from paper PMC12092823.

# Test system: α-glucosidase
# ASSAY_NAME: In vitro α-glucosidase inhibition assay
# Type: biochemical, yeast
# MEASUREMENT_CONDITIONS: in comparison to acarbose or compound 14b
MEASURED_ATTRIBUTE: anti-α-glucosidase activity in words

compound="O=C(Cn1cc(CNC(=O)c2cc3c([nH]c4ccccc43)c(-c3ccc(Cl)cc3)n2)nn1)Nc1cccc(Cl)c1 [Compound 14n]" measurement_target=α-glucosidase measured_attribute="anti-α-glucosidase activity in words" result=good
compound=Cc1cc([N+](=O)[O-])ccc1NC(=O)Cn1cc(CNC(=O)c2cc3c([nH]c4ccccc43)c(-c3ccc(Cl)cc3)n2)nn1 measurement_target=α-glucosidase measured_attribute="anti-α-glucosidase activity in words" result=good
